Target: DRB1*0901 (Homo sapiens, UniProt P01903+P01911, A100R/A103E/D57H/D86V/F55Y/F60I/F76Y/I96F/K127E/L162R/M171V/P40D/Q125H/Q99R/R33Q/R42F/S133A/S66N/T210M/V115G/W38K/Y107V/Y59G/Y89S)
Experiment: biochemical
Assay type: binding
No end group written: not given here.
experimental_readout: IC50 (µM)
Response body: numeric value in µM, unit text excluded.

Use the examples below as a reference point.
INSERT INTO measurements (sequence_input, unit, observed) VALUES
  ('KWGVLILALLRYKCG [Peptide 89.0027]', 'µM', 0.81),
  ('VTAIFGVNPTIAEGF [Peptide 89.0023]', 'µM', 2.91),
  ('ETCMLIQPPKLRSSV [Peptide 89.0029]', 'µM', 19.5);

Suppose we examine the sequence LKRFLQGIPKKNCIL [Peptide 89.0016] ; what IC50 value has been reported?
7.67

Suppose we examine the sequence GQVIVCPASVSSNEV [Peptide 90.0016] ; what IC50 value has been reported?
0.197

Suppose we examine the sequence TPEWIQRLTIIQHGI [Peptide 89.0030] ; what IC50 value has been reported?
2.43

Suppose we examine the sequence CQAIELQLALEALNK [Peptide 90.0014] ; what IC50 value has been reported?
1.78

Suppose we examine the sequence IIHLKGDANILKCLR [Peptide 90.0197] ; what IC50 value has been reported?
14.1

Suppose we examine the sequence HQVVPALSVSKAKAL [Peptide 89.0169] ; what IC50 value has been reported?
1.62

Suppose we examine the sequence VHEGIRTYFVQFKDD [Peptide 1601.05] ; what IC50 value has been reported?
5.86

Suppose we examine the sequence ACSWGMVVLLLVRYK [Peptide 89.0004] ; what IC50 value has been reported?
2

Suppose we examine the sequence LKLFLKGVPKKNCIL [Peptide 89.0054] ; what IC50 value has been reported?
2.01

Suppose we examine the sequence LMQLKCPPLLITSNI [Peptide 89.0057] ; what IC50 value has been reported?
5.08

Suppose we examine the sequence TAIFGVNPTIAEGFK [Peptide 89.0024] ; what IC50 value has been reported?
4.48

Suppose we examine the sequence SWGMVVLLLVRYKCG [Peptide 89.0005] ; what IC50 value has been reported?
0.777

Suppose we examine the sequence VMFLRYQGVEFMSFL [Peptide 89.0014] ; what IC50 value has been reported?
4.02

Suppose we examine the sequence KSLFGMSLMKFLQGS [Peptide 89.0020] ; what IC50 value has been reported?
0.31

Suppose we examine the sequence DICNTMHYTNWTHIY [Peptide 1601.04] ; what IC50 value has been reported?
4.85

----------
Target: DR1 (DRB1*0101) (Homo sapiens, UniProt P01903+P01911, A100R/D57E/F55L/F60I/F76Y/I96L/L162R/M171V/P40L/Q125E/R42F/V115G/Y59C)
Experiment: biochemical
Format: binding
experimental_readout: pIC50
Convention used: pIC50 is expressed as -log10 of the molar concentration.

Suppose we examine the compound CC[C@H](C)[C@H](NC(=O)[C@@H](NC(=O)[C@H](CCCCN)NC(=O)[C@H](Cc1ccccc1)NC(=O)[C@@H](NC(=O)[C@@H](NC(=O)[C@@H](N)CCCNC(=N)N)[C@@H](C)O)[C@@H](C)O)[C@@H](C)O)C(=O)N[C@H](C(=O)N[C@H](C(=O)N[C@@H](CO)C(=O)N[C@@H](C)C(=O)N[C@@H](CCC(=O)O)C(=O)N[C@@H](CC(C)C)C(=O)N1CCC[C@H]1C(=O)N[C@@H](CCCCN)C(=O)O)C(C)C)[C@@H](C)O [Peptide 9014.0054] ; what pIC50 value has been reported?
7.26
